# assayed_system: HLA-DQ molecule DQB1*0301 (human, UniProt P01909 24-216; P01920 33-230, limits assumed)
# Sequence (P01920 33-230 limits assumed, chain 2 of 4, other chains not shown): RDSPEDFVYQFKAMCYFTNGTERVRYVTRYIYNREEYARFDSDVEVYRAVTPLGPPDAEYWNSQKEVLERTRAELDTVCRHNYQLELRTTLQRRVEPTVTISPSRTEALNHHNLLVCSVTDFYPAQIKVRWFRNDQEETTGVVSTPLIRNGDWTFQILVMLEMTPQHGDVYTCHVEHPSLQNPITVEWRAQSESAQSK
# assay_notes: inhibition of radiolabeled peptide binding to purified HLA-DQ
assay_metric: IC50

1) NLNIKLNMPLYIAGN [Cha o 1 (96-110) peptide NLNIKLNMPLYIAGN]
31.9 µM
